# assaySystem: HLA-B*40:01
# protocol: HLA binding; serotype 4
# measurementParameters: chains peptide; modification not given
readoutType: IC50 (nM)
Give just the number in nM; leave the unit off.

Please give the measured IC50 for this binder: KQWFLDLPL […, serotype 4]
398
